test system: UO-31 renal; experiment: NCI tumour cell line growth inhibition, 48 h
measured_parameter: TGI

{"columns": ["compound", "measurement_target", "result"],
 "data": [
  ["COc1cccc(C2c3cc4c(cc3OC(NNc3ccccc3)C2C)OCO4)c1OC (centres undefined)", "UO-31 renal", "> 100 µM"],
  ["COc1c(Cl)nc2ccccc2c1N=[N+]=[N-]", "UO-31 renal", "> 100 µM"],
  ["COc1ccc(N2CCOCC2)cc1", "UO-31 renal", "> 100 µM"],
  ["NCC(O)CSP(=O)(O)O (centres undefined)", "UO-31 renal", "> 100 µM"]
]}

Hey, can you go through the list below and give me TGI for every item?
1. N#Cc1c(N)c2c(c(-c3ccccc3)c1-c1ccccc1)C(=O)N(NC(=S)Nc1ccccc1)C2=O
2. Nc1nnnn1NC(=O)NCCCl
3. CCCCCCCCCCCCCCCCCCNc1nc(=O)n(C2CC(O)C(COP(=O)(O)OCC(COP(=O)(O)OC3C(CO)OC(n4ccc(N)nc4=O)C3O)OCCCCCCCCCCCCCCCCCC)O2)cc1F (centres undefined)

Ans:
["> 100 µM", "> 10 µM", "> 100 µM"]

Hey, can you go through the list below and give me TGI for every item?
1. CCc1cccc(C)c1NC(=O)CCc1nnc(SC)o1
2. O=c1cc(O)ccn1C1C=C(CO)C(O)C1O (centres undefined)

Ans:
> 100 µM
> 625 µM
